# PROCEDURE SUMMARY: Cellular toxicity, same assay as Example B.4 without TAM (Example B.5)
# Format: cell-based
# ASSAY CONTEXT: mouse; Pfa1 cells without TAM; read-out: TC50 (the source's name)
Parameter: CC50. Scope: all listed entries.

| MOLECULE | MEAS VALUE |
| --- | --- |
| Cc1cc2c(cc1C)NC1(CCCCCCC1)C(NCc1ccccc1)=N2 [C-241] | 5 to 10 µM |
| Cc1cc2c(cc1C)NC1(CCOCC1)C(NCc1ccccc1)=N2 [O/S-340] | 20 to 50 µM |
| Clc1ccc(CNC2=Nc3cc(Cl)c(Cl)cc3NC23CCNCC3)cc1Cl [N-258] | 0.1 to 0.2 µM |
| Fc1cc(Cl)ccc1CNC1=Nc2ccccc2NC12CCOCC2 [O/S-61] | 20 to 50 µM |
| Cc1cc2c(cc1C)NC1(CCCCC1)C(NCc1ccccc1)=N2 [C-218] | 20 to 50 µM |

Alright, here's another molecule for you.
Entry under test: Clc1cc2c(cc1Cl)NC1(CCOCC1)C(NCc1ccccc1)=N2 [O/S-339] . Its CC50 was 20 to 50 µM

* * *

Parameter: IC50. Scope: all listed entries.
# Tested on: human neuroblastoma cell line SH-SY5Y
# PROCEDURE SUMMARY: Inhibition of BSO-induced non-apoptotic cell death (Example B.1)
# Assay type: cell-based
# ASSAY CONTEXT: SH-SY5Y cells, 50 μM BSO, 72 hours, read-out: SH-SY5Y/BSO IC50

Entry under test: Cc1cc2c(cc1C)NC1(CCNCC1)C(NCc1ccccc1)=N2 [N-210] . Its IC50 was < 50 nM

Entry under test: c1ccc(CCNC2=Nc3ccccc3NC23CCSCC3)cc1 [O/S-368] . Its IC50 was < 2000 nM

Entry under test: Fc1cc2c(cc1F)NC1(CCNCC1)C(NCc1ccccc1)=N2 [N-223] . Its IC50 was < 50 nM

Entry under test: CC(NC1=Nc2ccccc2NC12CCSCC2)c1ccccc1 (centres unmarked) [O/S-367] . Its IC50 was < 200 nM

Entry under test: Clc1cccc(CNC2=Nc3ccccc3NC23CCCCC3)c1 [C-2] . Its IC50 was < 100 nM

* * *

# Test system: Pfa1 cells
# PROCEDURE SUMMARY: Inhibition of non-apoptotic cell death after tamoxifen-induced GPx4 knockout in a recombinant cell line (Example B.4)
# Assay type: cell-based
# ASSAY CONTEXT: Mus musculus, read-out: Pfa1/TAM IC50
OBSERVABLE: IC50

# annotated cases, reported IC50 shown
| SMILES | IC50 |
| --- | --- |
| Cc1cc2c(cc1C)NC1(CCSCC1)C(NCc1ccccc1)=N2 | < 100 nM |
| Clc1ccc(CNC2=Nc3ccccc3NC23CCCCCC3)cc1 | < 200 nM |
| Clc1ccccc1CNC1=Nc2ccccc2NC12CCOCC2 | < 1000 nM |

Entry under test: Cc1cc2c(cc1C)NC1(CCNCC1)C(NCc1cccc(C(F)(F)F)c1)=N2 . Its IC50 was < 100 nM

Entry under test: Cc1cccc(CNC2=Nc3ccccc3NC23CCCCC3)c1 . Its IC50 was < 500 nM

* * *

Parameter: pIC50. Scope: all listed entries.
# System: Pfa1 cells
# PROCEDURE SUMMARY: Inhibition of non-apoptotic cell death after tamoxifen-induced GPx4 knockout in a recombinant cell line (Example B.4)
# Assay type: cell-based
# ASSAY CONTEXT: Mus musculus, read-out: Pfa1/TAM IC50
pIC50: −log10 of the molar value.

| SMILES | SUBJECT OF TEST | pIC50 |
| --- | --- | --- |
| Fc1cc2c(cc1F)NC1(CCCCC1)C(NCc1cccc(Cl)c1)=N2 | Pfa1 cells | > 6.70 |
| COc1cccc(CNC2=Nc3ccccc3NC23CCNCC3)c1 | Pfa1 cells | > 6.30 |
| Fc1cccc(CNC2=Nc3ccccc3NC23CCNCC3)c1 | Pfa1 cells | > 7.00 |
| FC(F)(F)c1cccc(CNC2=Nc3ccccc3NC23CCNCC3)c1 | Pfa1 cells | > 7.30 |

Alright, here's another molecule for you.
Entry under test: Clc1cccc(CNC2=Nc3ccccc3NC23CCSCC3)c1 . Its pIC50 was > 6.70

* * *

Parameter: pIC50. Scope: all listed entries.
# Test system: human neuroblastoma cell line SH-SY5Y
# PROCEDURE SUMMARY: Inhibition of BSO-induced non-apoptotic cell death (Example B.1)
# Type: cell-based
# ASSAY CONTEXT: SH-SY5Y cells, 50 μM BSO, 72 hours, read-out: SH-SY5Y/BSO IC50
pIC50: −log10 of the molar value.

# annotated cases, reported pIC50 shown
| COMPOUND | pIC50 |
| --- | --- |
| CC1CC2(CCN1)Nc1ccccc1N=C2NCc1cccc(Cl)c1 (stereo not drawn) | > 7.30 |
| c1ccc(CNC2=Nc3ccccc3NC23CCSCC3)cc1 | > 6.30 |
| Clc1ccccc1CNC1=Nc2ccccc2NC12CCNCC2 | > 7.70 |
| Clc1cc2c(cc1Cl)NC1(CCOCC1)C(NCc1ccccc1)=N2 | > 7.70 |
| Clc1ccccc1CNC1=Nc2ccccc2NC12CCCCCC2 | > 7.00 |

Alright, here's another compound for you.
Entry under test: Clc1ccccc1CNC1=Nc2ccccc2NC12CCOCC2 . Its pIC50 was > 6.30

* * *

# Tested on: Pfa1 cells
# PROCEDURE SUMMARY: Inhibition of non-apoptotic cell death after tamoxifen-induced GPx4 knockout in a recombinant cell line (Example B.4)
# Type: cell-based
# ASSAY CONTEXT: Mus musculus, read-out: Pfa1/TAM IC50
OBSERVABLE: IC50

| COMPOUND | MEAS VALUE |
| --- | --- |
| Fc1cccc(F)c1CNC1=Nc2ccccc2NC12CCCCCC2 | < 500 nM |

Entry under test: Clc1cccc(CNC2=Nc3ccccc3NC23CCCCCCC3)c1 . Its IC50 was < 500 nM

Entry under test: Clc1cc2c(cc1Cl)NC1(CCCCCC1)C(NCc1ccccc1)=N2 . Its IC50 was < 200 nM

Entry under test: FC(F)(F)c1cccc(CNC2=Nc3ccccc3NC23CCCCC3)c1 . Its IC50 was < 50 nM

Entry under test: CC1CC2(CCN1)Nc1ccccc1N=C2NCc1ccccc1 (stereo not shown) . Its IC50 was < 500 nM

Entry under test: FC1(F)Oc2cc3c(cc2O1)NC1(CCCCC1)C(NCc1ccccc1)=N3 . Its IC50 was < 100 nM

Entry under test: c1ccc(CNC2=Nc3ccccc3NC23CCCCC3)cc1 . Its IC50 was < 1000 nM

Entry under test: Clc1cccc(CCNC2=Nc3ccccc3NC23CCOCC3)c1 . Its IC50 was < 1000 nM

Entry under test: Clc1cc2c(cc1Cl)NC1(CCCCCC1)C(NCc1ccccc1Cl)=N2 . Its IC50 was < 500 nM

Entry under test: CN1CCC2(CC1)Nc1ccccc1N=C2NCc1ccccc1 . Its IC50 was < 500 nM

* * *

# Test system: mouse hippocampal cell line (Ht22)
# PROCEDURE SUMMARY: Inhibition of glutamate-induced non-apoptotic cell death (Example B.2)
# Assay type: cell-based
# ASSAY CONTEXT: HT-22, Ht22 cells, glutamate 5 mM, 72 hours, cell survival, read-out: Ht22/GLU (Example B.2) IC50
pIC50: −log10 of the molar value.
Parameter: pIC50. Scope: all listed entries.

| MOLECULE | MEAS VALUE |
| --- | --- |
| Cc1ccc(CNC2=Nc3ccccc3NC23CCCCC3)cc1 | 6.53 |
| CC1CCC2(CC1)Nc1ccccc1N=C2NCc1ccccc1Cl (centres unmarked) | ~7.30 |
| Clc1ccccc1CNC1=Nc2ccccc2NC12CCNCC2 | 7.99 |

Entry under test: Clc1ccccc1CNC1=Nc2ccccc2NC12CCCCCC2 . Its pIC50 was ~7.00

Entry under test: Fc1ccc(CNC2=Nc3ccccc3NC23CCOCC3)cc1 . Its pIC50 was 6.66

Entry under test: Clc1ccc(CNC2=Nc3ccccc3NC23CCOCC3)cc1 . Its pIC50 was ~7.00

Entry under test: Cc1ccccc1CNC1=Nc2ccccc2NC12CCNCC2 . Its pIC50 was 7.30 to 8.00

Entry under test: Clc1cccc(CNC2=Nc3ccccc3NC23CCNCC3)c1 . Its pIC50 was ~8.00

* * *

Parameter: CC50. Scope: all listed entries.
# PROCEDURE SUMMARY: Cellular toxicity, same assay as Example B.4 without TAM (Example B.5)
# Assay type: cell-based
# ASSAY CONTEXT: mouse; Pfa1 cells without TAM; read-out: TC50 (the source's name)

# annotated cases, reported CC50 shown
| COMPOUND | CC50 |
| --- | --- |
| Cc1cccc(CNC2=Nc3cc(Cl)c(Cl)cc3NC23CCCCC3)c1 | 10 to 20 µM |
| Cc1cc(C)cc(CNC2=Nc3cc(Cl)c(Cl)cc3NC23CCCCCC3)c1 | 10 to 20 µM |
| Cc1cc2c(cc1C)NC1(CCNCC1)C(NCc1ccccc1)=N2 | 2 to 5 µM |
| CCCCCCCCCCCCN1CCC2(CC1)Nc1ccccc1N=C2NCc1ccccc1 | 2 to 5 µM |

Entry under test: c1ccc(CNC2=Nc3ccccc3NC23CCCCCC3)cc1 . Its CC50 was 10 to 20 µM

Entry under test: Fc1cc2c(cc1F)NC1(CCCCC1)C(NCc1ccccc1)=N2 . Its CC50 was 20 to 50 µM

Provenance of the data: patent US10280179B2
